- Study System: fms (Homo sapiens, UniProt P07333)
- Sequence (P07333 582-910 limits assumed, species assumed): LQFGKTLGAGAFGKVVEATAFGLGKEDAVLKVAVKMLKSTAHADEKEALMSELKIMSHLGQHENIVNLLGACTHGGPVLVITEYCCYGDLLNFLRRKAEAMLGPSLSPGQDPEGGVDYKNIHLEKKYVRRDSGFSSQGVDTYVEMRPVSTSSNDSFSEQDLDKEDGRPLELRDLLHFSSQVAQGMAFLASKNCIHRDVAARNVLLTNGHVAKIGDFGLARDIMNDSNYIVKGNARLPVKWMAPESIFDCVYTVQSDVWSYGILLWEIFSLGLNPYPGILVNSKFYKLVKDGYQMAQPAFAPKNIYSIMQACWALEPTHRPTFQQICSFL
- Protocol Description: fms kinase assay (ELISA or Alphascreen)
- Format: biochemical
- Recorded Conditions: read-out: fms inhibition of enzyme activity
I'd be grateful if you could share measured inhibition at 10 µM for these entries.

// below: answered compounds
Compound: CN(Cc1ccccc1)C(=O)c1cncc(-c2ccc(O)cc2)c1
Result: < 50%

Compound: O=C(Nc1ccccc1)c1cncc(-c2ccc3c(c2)OCO3)c1
Result: < 50%

Compound: CC(C)NC(=O)c1cncc(-c2cccs2)c1
Result: ≥ 50%

Compound: COc1cc(-c2cncc(C(=O)NC(CO)C(C)C)c2)c(Cl)c(OC)c1OC (stereo not drawn)
Result: < 50%

Compound: CN(Cc1ccccc1)C(=O)c1cncc(-c2cccs2)c1
Result: < 50%

Now examine the next entry.
// query inhibition at 10 µM value for entry CC(CCc1ccccc1)NC(=O)c1cncc(-c2cccs2)c1 (stereo not drawn)
< 50%

###

- Study System: human JAK3 (Homo sapiens, UniProt P52333)
- Construct: The kinase domain of human JAK3 was amplified from U937mRNA; His tag (from the pFastBac HTb vector) (N); made in house; host or cells: baculovirus; Sf9 for virus, High Five insect cells for production
- Sequence (P52333 822-1111 limits assumed): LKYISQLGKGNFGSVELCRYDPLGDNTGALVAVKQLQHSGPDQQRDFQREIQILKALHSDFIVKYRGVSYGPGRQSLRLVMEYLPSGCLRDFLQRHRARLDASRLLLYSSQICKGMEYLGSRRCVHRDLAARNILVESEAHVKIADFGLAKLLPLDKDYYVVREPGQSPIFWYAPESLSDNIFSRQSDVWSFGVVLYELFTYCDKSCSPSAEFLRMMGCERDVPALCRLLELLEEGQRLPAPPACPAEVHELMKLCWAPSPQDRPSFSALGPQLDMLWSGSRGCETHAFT
- Protocol Description: JAK3 kinase assay (ELISA or Alphascreen)
- Type: biochemical
- Recorded Conditions: read-out: Jak3 inhibition of enzyme activity
Recorded Metric: inhibition at 10 µM

// below: answered compounds
Smiles Representation: COc1cc(-c2cncc(C(=O)NCCc3ccccc3)c2)c(Cl)c(OC)c1OC
inhibition at 10 µM: < 50%
//
Smiles Representation: COc1cc(-c2cncc(C(=O)NCc3ccc(C)cc3)c2)c(Cl)c(OC)c1OC
inhibition at 10 µM: < 50%

Parameters: items (list). Returns: inhibition at 10 µM for each item.
1. O=C(NCc1ccc(Cl)c(Cl)c1)c1cncc(-c2ccc(O)cc2)c1
2. O=C(NCc1ccco1)c1cncc(-c2ccc(O)cc2)c1

< 50%
< 50%

Parameters: items (list). Returns: inhibition at 10 µM for each item.
1. COc1cccc(-c2cncc(C(=O)Nc3cc(C)ccc3C)c2)c1
2. Cc1ccc(F)cc1NC(=O)c1cncc(-c2cc(C)c(O)c(C)c2)c1
3. O=C(Nc1ccccc1)c1cncc(-c2ccc3c(c2)OCO3)c1
4. Cc1ccccc1NC(=O)c1cncc(-c2ccc3c(c2)OCO3)c1
5. COc1cccc(-c2cncc(C(=O)N[C@@H](C)c3ccccc3)c2)c1

["< 50%", "< 50%", "< 50%", "< 50%", "< 50%"]

Parameters: items (list). Returns: inhibition at 10 µM for each item.
1. COc1cc(-c2cncc(C(=O)Nc3ccccc3C)c2)ccc1O
2. O=C(NCCc1ccccc1)c1cncc(-c2ccc(O)cc2)c1

["< 50%", "< 50%"]

###

- Study System: hck (Homo sapiens, UniProt P08631)
- Sequence (P08631 262-515 limits assumed, species assumed): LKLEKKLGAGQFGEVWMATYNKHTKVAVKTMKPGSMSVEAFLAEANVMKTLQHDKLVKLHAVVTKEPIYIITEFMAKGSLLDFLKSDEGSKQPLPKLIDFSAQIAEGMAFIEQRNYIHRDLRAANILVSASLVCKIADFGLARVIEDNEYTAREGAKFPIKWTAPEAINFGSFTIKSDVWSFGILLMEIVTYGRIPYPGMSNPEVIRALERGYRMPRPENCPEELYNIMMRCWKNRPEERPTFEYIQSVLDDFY
- Protocol Description: hck kinase assay (ELISA or Alphascreen)
- Format: biochemical
- Recorded Conditions: read-out: hck inhibition of enzyme activity
I'd be grateful if you could share measured inhibition at 10 µM for these entries.

Smiles Representation: COc1cccc(-c2cncc(C(=O)Nc3ccccc3)c2)c1
Result: < 50%
--
Smiles Representation: Cc1cc(-c2cncc(C(=O)Nc3ccccc3)c2)cc(C)c1O
Result: ≥ 50%
--
Smiles Representation: Cc1ccc(CNC(=O)c2cncc(-c3cccs3)c2)cc1
Result: < 50%
--
Smiles Representation: COc1cc(-c2cncc(C(=O)NCCO)c2)cc(OC)c1OC
Result: < 50%
--
Smiles Representation: COc1cc(-c2cncc(C(=O)Nc3cc(F)ccc3C)c2)c(Cl)c(OC)c1OC
Result: ≥ 50%

// query inhibition at 10 µM value for entry CC(C)NC(=O)c1cncc(-c2ccc(O)cc2)c1
≥ 50%
